# method.summary: Competitive binding affinity to fluorescein-labeled HIV TAR RNA in presence of Escherichia coli tRNA by electrophoretic mobility shift assay
# Parameters: species or system Human immunodeficiency virus
# applied.conditions: read-out: Kd(app)

>  <smiles.input>
CC(=O)N[C@@H](Cc1ccc(O)cc1)C(=O)NCC(=O)N[C@@H](CCCNC(=N)N)C(=O)N[C@@H](CCCCN)C(=O)N[C@@H](CCCC[N+](C)(C)C)C(=O)N[C@@H](CCCNC(=N)N)C(=O)N[C@@H](CCCNC(=N)N)C(=O)N[C@@H](CCC(N)=O)C(=O)N[C@@H](CCCNC(=N)N)C(=O)N[C@@H](CCCNC(=N)N)C(=O)N[C@@H](CCCNC(=N)N)C(N)=O

>  <Kd>
0.599 µM

$$$$
>  <smiles.input>
CC(=O)N[C@@H](Cc1ccc(O)cc1)C(=O)NCC(=O)N[C@@H](CCCNC(=N)N)C(=O)N[C@@H](CCCCN)C(=O)N[C@@H](CCCCN(C)C)C(=O)N[C@@H](CCCNC(=N)N)C(=O)N[C@@H](CCCNC(=N)N)C(=O)N[C@@H](CCC(N)=O)C(=O)N[C@@H](CCCNC(=N)N)C(=O)N[C@@H](CCCNC(=N)N)C(=O)N[C@@H](CCCNC(=N)N)C(N)=O

>  <Kd>
0.28 µM

$$$$
>  <smiles.input>
CC(=O)N[C@@H](Cc1ccc(O)cc1)C(=O)NCC(=O)N[C@@H](CCCNC(=N)N)C(=O)N[C@@H](CCCCN(C)C)C(=O)N[C@@H](CCCCN)C(=O)N[C@@H](CCCNC(=N)N)C(=O)N[C@@H](CCCNC(=N)N)C(=O)N[C@@H](CCC(N)=O)C(=O)N[C@@H](CCCNC(=N)N)C(=O)N[C@@H](CCCNC(=N)N)C(=O)N[C@@H](CCCNC(=N)N)C(N)=O

>  <Kd>
0.183 µM

$$$$

----------
# method.summary: Competitive binding affinity to fluorescein-labeled HIV TAR RNA in presence of Escherichia coli tRNA by electrophoretic mobility shift assay
# Set-up: species or system Human immunodeficiency virus
# applied.conditions: read-out: Kd(app)
pKd: −log10 of the molar value.

>  <smiles.input>
CC(=O)N[C@@H](Cc1ccc(O)cc1)C(=O)NCC(=O)N[C@@H](CCCNC(=N)N)C(=O)N[C@@H](CCCC[N+](C)(C)C)C(=O)N[C@@H](CCCCN)C(=O)N[C@@H](CCCNC(=N)N)C(=O)N[C@@H](CCCNC(=N)N)C(=O)N[C@@H](CCC(N)=O)C(=O)N[C@@H](CCCNC(=N)N)C(=O)N[C@@H](CCCNC(=N)N)C(=O)N[C@@H](CCCNC(=N)N)C(N)=O

>  <pKd>
6.77

$$$$
>  <smiles.input>
CNCCCC[C@H](NC(=O)[C@H](CCCCN)NC(=O)[C@H](CCCNC(=N)N)NC(=O)CNC(=O)[C@H](Cc1ccc(O)cc1)NC(C)=O)C(=O)N[C@@H](CCCNC(=N)N)C(=O)N[C@@H](CCCNC(=N)N)C(=O)N[C@@H](CCC(N)=O)C(=O)N[C@@H](CCCNC(=N)N)C(=O)N[C@@H](CCCNC(=N)N)C(=O)N[C@@H](CCCNC(=N)N)C(N)=O

>  <pKd>
6.39

$$$$
>  <smiles.input>
CC(=O)NCCCC[C@H](NC(=O)[C@H](CCCCN)NC(=O)[C@H](CCCNC(=N)N)NC(=O)CNC(=O)[C@H](Cc1ccc(O)cc1)NC(C)=O)C(=O)N[C@@H](CCCNC(=N)N)C(=O)N[C@@H](CCCNC(=N)N)C(=O)N[C@@H](CCC(N)=O)C(=O)N[C@@H](CCCNC(=N)N)C(=O)N[C@@H](CCCNC(=N)N)C(=O)N[C@@H](CCCNC(=N)N)C(N)=O

>  <pKd>
6.43

$$$$
